- System: JMJD2C (Homo sapiens (Human), UniProt Q9H3R0)
- Sequence (Q9H3R0 2-372): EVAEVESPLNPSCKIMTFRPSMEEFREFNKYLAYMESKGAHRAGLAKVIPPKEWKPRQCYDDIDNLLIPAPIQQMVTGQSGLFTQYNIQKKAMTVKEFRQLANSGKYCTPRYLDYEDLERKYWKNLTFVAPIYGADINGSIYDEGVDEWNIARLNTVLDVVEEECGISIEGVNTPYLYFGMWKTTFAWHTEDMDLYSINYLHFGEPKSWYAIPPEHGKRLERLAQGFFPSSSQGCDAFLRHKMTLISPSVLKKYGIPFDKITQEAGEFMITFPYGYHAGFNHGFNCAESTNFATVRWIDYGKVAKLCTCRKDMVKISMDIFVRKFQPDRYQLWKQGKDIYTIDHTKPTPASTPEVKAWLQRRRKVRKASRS
pIC50: −log10 of the molar value.
Attribute Measured: pIC50

Here is how some molecules turned out for pIC50.
# Molecule, Attribute Measured, Result
rows = [
    ("O=C(O)c1ccnc(-n2nccc2OCc2ccncc2)c1 [Example 61]", "pIC50", "> 7.00"),
    ("CC(Oc1cc(F)ccc1COc1ccnn1-c1cc(C(=O)O)ccn1)c1ccccc1 (centres unmarked) [Example 137]", "pIC50", "5.00 to 6.00"),
    ("Cc1ccc(COc2ccnn2-c2cc(C(=O)O)ccn2)c(Cl)c1 [Example 130]", "pIC50", "5.00 to 6.00"),
    ("COc1cccc(COc2ccnn2-c2cc(C(=O)O)ccn2)c1 [Example 42]", "pIC50", "> 7.00"),
    ("Cc1ccc(COc2ccnn2-c2cc(C(=O)O)ccn2)c(C)c1 [Example 132]", "pIC50", "6.00 to 7.00"),
]

Parameters: items (list). Returns: pIC50 for each item.
1. CC(c1ccccc1)c1cc(O)n(-c2cc(-c3nnn[nH]3)ccn2)n1 (centres unmarked) [Example 166]
2. O=C(O)c1ccnc(-n2nc(C3CC3)cc2O)c1 [Example 2]
3. Cc1cc(I)ccc1COc1ccnn1-c1cc(C(=O)O)ccn1 [Example 144]
4. O=C(O)c1ccnc(-n2nccc2O)c1 [Example 11]

1: 5.00 to 6.00; 2: 6.00 to 7.00; 3: 6.00 to 7.00; 4: 6.00 to 7.00

Parameters: items (list). Returns: pIC50 for each item.
1. O=C(O)c1ccnc(-n2nccc2Cc2ccccc2)c1 [Example 32]
2. COc1cc(Br)ccc1COc1ccnn1-c1cc(C(=O)O)ccn1 [Example 143]

["< 5.00", "6.00 to 7.00"]

Parameters: items (list). Returns: pIC50 for each item.
1. O=C(O)c1ccnc(-n2nccc2OCc2ccc(Cl)cc2)c1 [Example 53]
2. CCc1cc(C#N)ccc1COc1ccnn1-c1cc(C(=O)O)ccn1 [Example 126]

1. > 7.00
2. 6.00 to 7.00

----------
pIC50: −log10 of the molar value.
// pIC50 collected for UniProtKB P29375
Sequence (P29375 1-1090): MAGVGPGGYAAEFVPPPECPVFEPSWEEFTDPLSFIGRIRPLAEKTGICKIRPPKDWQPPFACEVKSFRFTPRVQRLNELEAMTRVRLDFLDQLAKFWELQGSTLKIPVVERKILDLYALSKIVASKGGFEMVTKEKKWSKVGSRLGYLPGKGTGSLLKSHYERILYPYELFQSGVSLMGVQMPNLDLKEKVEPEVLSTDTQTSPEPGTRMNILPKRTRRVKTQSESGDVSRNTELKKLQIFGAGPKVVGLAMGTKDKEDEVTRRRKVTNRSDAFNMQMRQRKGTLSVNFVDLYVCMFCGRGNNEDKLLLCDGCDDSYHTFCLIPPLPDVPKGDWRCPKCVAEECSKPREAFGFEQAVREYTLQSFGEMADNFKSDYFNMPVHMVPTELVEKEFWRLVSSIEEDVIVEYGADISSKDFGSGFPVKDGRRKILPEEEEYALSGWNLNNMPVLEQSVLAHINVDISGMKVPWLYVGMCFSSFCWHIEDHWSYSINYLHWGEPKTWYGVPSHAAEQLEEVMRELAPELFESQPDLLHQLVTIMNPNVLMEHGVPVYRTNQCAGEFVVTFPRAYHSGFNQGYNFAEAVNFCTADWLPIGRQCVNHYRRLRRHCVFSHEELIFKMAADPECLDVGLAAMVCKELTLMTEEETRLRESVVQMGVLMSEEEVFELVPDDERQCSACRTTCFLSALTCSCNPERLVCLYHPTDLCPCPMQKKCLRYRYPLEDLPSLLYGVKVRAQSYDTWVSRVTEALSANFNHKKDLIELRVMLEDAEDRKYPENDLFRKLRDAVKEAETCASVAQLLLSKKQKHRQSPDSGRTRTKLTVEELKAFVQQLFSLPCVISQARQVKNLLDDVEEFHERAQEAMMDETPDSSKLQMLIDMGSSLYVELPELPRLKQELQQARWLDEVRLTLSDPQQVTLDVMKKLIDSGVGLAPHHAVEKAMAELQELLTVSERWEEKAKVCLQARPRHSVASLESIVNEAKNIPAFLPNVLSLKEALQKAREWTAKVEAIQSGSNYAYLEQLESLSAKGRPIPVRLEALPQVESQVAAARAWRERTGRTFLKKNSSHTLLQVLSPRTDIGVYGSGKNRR

Here is how some molecules turned out for pIC50.
# Smiles Str, Attribute Measured, Result
rows = [
    ("CN(C)c1ccc(-c2ccnn2-c2cc(C(=O)O)ccn2)cc1", "pIC50", "6.00 to 7.00"),
    ("O=C(O)c1ccnc(-n2nccc2OCc2ccc(Cl)c(F)c2)c1", "pIC50", "> 7.00"),
    ("COc1cc(-c2ccnn2-c2cc(C(=O)O)ccn2)ccc1C", "pIC50", "6.00 to 7.00"),
    ("O=C(O)c1ccnc(-n2nccc2OCc2ccc(Cl)cc2)c1", "pIC50", "> 7.00"),
    ("CN(C)CCc1cnn(-c2cc(C(=O)O)ccn2)c1OCc1ccc(F)cc1", "pIC50", "> 7.00"),
]

Parameters: items (list). Returns: pIC50 for each item.
1. O=C(O)c1ccnc(-n2nccc2OCc2ccc(C3CC3)c(F)c2)c1
2. Cc1nn(-c2cc(C(=O)O)ccn2)c(O)c1-c1ccccc1

["6.00 to 7.00", "5.00 to 6.00"]

Parameters: items (list). Returns: pIC50 for each item.
1. Cc1cc(C#N)ccc1COc1ccnn1-c1cc(C(=O)O)ccn1
2. O=C(O)c1ccnc(-n2nccc2OCc2ccc(F)cc2/C=C/c2ccc(F)cc2)c1

1: > 7.00; 2: 6.00 to 7.00

----------
// IC50 collected for JMJD2C (Homo sapiens (Human))

Here is how some compounds turned out for IC50.
# Compound, System, IC50
measured = [
    ("O=C(O)c1ccnc(-n2nccc2OCc2ccc(Cl)cc2CCc2ccc(F)cc2)c1 [Example 122]", "JMJD2C (Homo sapiens (Human))", "1000 to 10000 nM"),
    ("CC(C)(c1ccc(Cl)cc1)c1cc(O)n(-c2cc(C(=O)O)ccn2)n1 [Example 170]", "JMJD2C (Homo sapiens (Human))", "1000 to 10000 nM"),
]

Parameters: items (list). Returns: IC50 for each item.
1. COc1cc(C)nn1-c1cc(C(=O)O)ccn1 [Example 37]
2. CCc1cc(F)ccc1COc1ccnn1-c1cc(C(=O)O)ccn1 [Example 129]

1. 1000 to 10000 nM
2. 100 to 1000 nM

Parameters: items (list). Returns: IC50 for each item.
1. O=C(O)c1ccnc(-n2nccc2-c2ccc(Cl)c(O)c2)c1 [Example 23]
2. Cc1ccc(COc2ccnn2-c2cc(C(=O)O)ccn2)cc1 [Example 55]
3. CCc1cnn(-c2cc(C(=O)O)ccn2)c1OCc1ccc(F)cc1 [Example 85]
4. Cc1cc(OCc2ccccc2)n(-c2cc(C(=O)O)ccn2)n1 [Example 38]
5. O=C(O)c1ccnc(-n2nccc2OCc2ccc(C3CC3)c(F)c2)c1 [Example 155]

1: 1000 to 10000 nM; 2: < 100 nM; 3: 100 to 1000 nM; 4: 100 to 1000 nM; 5: 1000 to 10000 nM

----------
pIC50: −log10 of the molar value.
// pIC50 collected for FBXL10 (Homo sapiens (Human), UniProt Q8NHM5)

Here is how some molecules turned out for pIC50.
# Smiles Str, Attribute Measured, Result
rows = [
    ("O=C(O)c1ccnc(-n2nccc2OCc2ccc3cn[nH]c3c2)c1", "pIC50", "6.00 to 7.00"),
    ("O=C(O)c1ccnc(-n2nccc2OCc2ccc(Cl)cc2OCc2ccc(F)cc2)c1", "pIC50", "5.00 to 6.00"),
    ("CCc1ccc(COc2ccnn2-c2cc(C(=O)O)ccn2)cc1", "pIC50", "5.00 to 6.00"),
]

Parameters: items (list). Returns: pIC50 for each item.
1. O=C(O)c1ccnc(-n2nc(C3CC3)cc2O)c1
2. O=C(O)c1ccnc(-n2nccc2OCc2ccc(Cl)cc2OCC(F)(F)F)c1

1: > 7.00; 2: 5.00 to 6.00

Parameters: items (list). Returns: pIC50 for each item.
1. COCc1cc(O)n(-c2cc(C(=O)O)ccn2)n1
2. Cc1ccc(COc2ccnn2-c2cc(C(=O)O)ccn2)c(Cl)c1

["> 7.00", "5.00 to 6.00"]

Parameters: items (list). Returns: pIC50 for each item.
1. O=C(O)c1ccnc(-n2nc(COc3ccccc3)cc2O)c1
2. Cc1ccc(COc2ccnn2-c2cc(C(=O)O)ccn2)cc1Cl

1. > 7.00
2. 5.00 to 6.00

----------
- System: Jarid1B (Homo sapiens (Human), UniProt Q9UGL1)
- Sequence (Q9UGL1 2-751): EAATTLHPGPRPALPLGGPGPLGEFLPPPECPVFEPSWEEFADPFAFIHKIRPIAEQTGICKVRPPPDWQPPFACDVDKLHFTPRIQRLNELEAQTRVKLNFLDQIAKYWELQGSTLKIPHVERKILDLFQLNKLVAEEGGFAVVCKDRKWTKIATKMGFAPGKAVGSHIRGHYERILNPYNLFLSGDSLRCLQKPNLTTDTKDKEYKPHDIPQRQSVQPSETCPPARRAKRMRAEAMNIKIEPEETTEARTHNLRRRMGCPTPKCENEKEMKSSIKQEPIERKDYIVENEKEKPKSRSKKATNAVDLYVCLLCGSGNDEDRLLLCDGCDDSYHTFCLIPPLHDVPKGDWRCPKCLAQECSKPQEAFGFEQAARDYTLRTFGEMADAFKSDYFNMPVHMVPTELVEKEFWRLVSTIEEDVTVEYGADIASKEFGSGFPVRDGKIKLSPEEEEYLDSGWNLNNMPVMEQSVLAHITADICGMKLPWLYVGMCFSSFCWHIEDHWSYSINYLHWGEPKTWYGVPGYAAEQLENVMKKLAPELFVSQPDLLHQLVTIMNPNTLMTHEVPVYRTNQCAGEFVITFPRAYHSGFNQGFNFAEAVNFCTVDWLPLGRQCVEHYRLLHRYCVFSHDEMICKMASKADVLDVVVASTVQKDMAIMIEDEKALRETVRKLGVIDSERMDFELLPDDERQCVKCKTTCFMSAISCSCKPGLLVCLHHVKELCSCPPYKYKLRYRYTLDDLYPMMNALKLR
Exercise: state measured IC50 for each of the molecules provided.

Here is how some molecules turned out for IC50.
# Smiles Str, IC50
records = [
    ("O=C(O)c1ccnc(-n2nccc2OCc2ccc(Cl)cc2CCc2ccc(F)cc2)c1", "100 to 1000 nM"),
    ("O=C(O)c1ccnc(-n2nc(-c3ccc(Cl)cc3)cc2O)c1", "1000 to 10000 nM"),
    ("O=C(O)c1ccnc(-n2nccc2OCc2ccc(F)cc2OCc2ccc(F)cc2)c1", "< 100 nM"),
    ("O=C(O)c1ccnc(-n2nccc2OCc2ccc(Cl)cc2OCC2CC2)c1", "< 100 nM"),
    ("CN(C)c1ccc(-c2ccnn2-c2cc(C(=O)O)ccn2)cc1", "100 to 1000 nM"),
    ("CCCCc1ccnn1-c1cc(C(=O)O)ccn1", "1000 to 10000 nM"),
    ("O=C(O)c1ccnc(-n2nccc2OCc2ccc(F)cc2F)c1", "< 100 nM"),
    ("O=C(O)c1ccnc(-n2nccc2OCc2ccccc2F)c1", "< 100 nM"),
]

Specify IC50 for O=C(O)c1ccnc(-n2nccc2OCc2ccc(C3CC3)cc2)c1 and stop. < 100 nM

----------
- System: UniProt Q9UGL1
Attribute Measured: IC50

Parameters: items (list). Returns: IC50 for each item.
1. O=C(O)c1ccnc(-n2nccc2OCC2CCC(F)(F)CC2)c1 [Example 71]
2. O=C(O)c1ccnc(-n2ccc(Cc3ccccc3)n2)c1 [Example 33]
3. COc1cc(C)ccc1COc1ccnn1-c1cc(C(=O)O)ccn1 [Example 133]
4. Cc1ccc(-c2ccnn2-c2cc(C(=O)O)ccn2)cc1 [Example 12]
5. CCCc1cc(O)n(-c2cc(C(=O)O)ccn2)n1 [Example 6]
6. CC(Oc1ccnn1-c1cc(C(=O)O)ccn1)c1ccc(F)cc1 (stereo not drawn) [Example 82]
7. CN(CCc1cnn(-c2cc(C(=O)NC#N)ccn2)c1)Cc1ccc(F)cc1 [Example 157]

1. < 100 nM
2. 1000 to 10000 nM
3. < 100 nM
4. 100 to 1000 nM
5. 100 to 1000 nM
6. < 100 nM
7. < 100 nM
